target: GLP-1R (Homo sapiens, UniProt P43220)
Sequence (P43220 24-463): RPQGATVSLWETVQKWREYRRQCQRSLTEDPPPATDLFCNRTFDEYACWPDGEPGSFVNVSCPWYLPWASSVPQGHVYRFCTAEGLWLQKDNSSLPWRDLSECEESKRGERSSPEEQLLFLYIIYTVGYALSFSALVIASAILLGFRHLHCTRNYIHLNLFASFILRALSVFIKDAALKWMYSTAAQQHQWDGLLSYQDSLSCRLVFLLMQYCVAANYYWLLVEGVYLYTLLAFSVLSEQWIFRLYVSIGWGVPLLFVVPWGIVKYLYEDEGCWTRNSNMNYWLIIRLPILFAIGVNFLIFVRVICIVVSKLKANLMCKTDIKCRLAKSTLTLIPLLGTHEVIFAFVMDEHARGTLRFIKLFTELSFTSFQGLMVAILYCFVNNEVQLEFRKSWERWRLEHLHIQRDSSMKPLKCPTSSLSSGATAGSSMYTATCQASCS
quantity-measured: IC50 (µM)
Output spec: scalar in µM, unitless text.

compound `Cc1ccc(NS(=O)(=O)c2ccc(NC(=O)c3n[nH]c4c3COc3ccccc3-4)cc2)cc1` , IC50 observed: 4.07

###

Exercise: for every item that follows, state its recorded EC50.
molecular target: UniProtKB P43220; test: cell-based
Output spec: scalar in µM, unitless text.

compound `Cc1ccc(-c2nn(-c3ccccc3)cc2C(=O)Nc2cccc(-n3cnnn3)c2)o1` , EC50 observed: 15.8

compound CCC(C)N(CC(=O)N(Cc1cccn1Cc1ccccc1)C1CCCCC1)C(=O)C1CCC1 (centres unmarked) , EC50 observed: 15.8

###

Exercise: for every item that follows, state its recorded Binding Span ± SEM.
molecular target: GLP-1R (Homo sapiens, UniProt P43220); details: Table 4, analogues of new PAMs; competition with 125I-GLP-1
# print the numeric value only

molecule `CCCCN(CC(=O)N(Cc1cccn1Cc1ccccc1)C1CC1)C(=O)C1CCCC1` , Binding Span ± SEM observed: 35.25

molecule `Cc1ccc(NS(=O)(=O)c2ccc(NC(=O)c3n[nH]c4c3COc3ccccc3-4)cc2)cc1` , Binding Span ± SEM observed: 51.92

molecule `COc1ccc(S(=O)(=O)Nc2cccc(C(=O)Nc3cc(C)on3)c2)cc1` , Binding Span ± SEM observed: 59.69

###

biological target: GLP-1R (Homo sapiens); conditions: GLP-1R expressing CHO-K1 cells
quantity-measured: Modulation of GLP-1-elicited cAMP accumulation / GLP-1 potency (in words)

{"structure-smiles": "O=C(Nc1ccc(Cl)cc1)Nc1snnc1C(=O)Nc1ccc(C(=O)O)cc1", "result": "negatively modulated"}
{"structure-smiles": "O=C(O)c1cccc(NN=Cc2cn(-c3ccccc3)nc2-c2cc3ccccc3o2)c1", "result": "negatively modulated"}

###

Exercise: for every item that follows, state its recorded cAMP Accumulation Emax (% WT).
target: GLP-1R (Homo sapiens); settings: Table 3, PAMs from LBVS; relative to maximal response of GLP-1 at WT receptor
Output spec: scalar in % WT, unitless text.

compound `COc1ccc(NC(=O)c2n[nH]c3ccc([N+](=O)[O-])cc23)cc1NS(=O)(=O)c1ccc(F)cc1` , cAMP Accumulation Emax (% WT) observed: 89.4

compound `Cc1ccc(-c2nn(-c3ccccc3)cc2C(=O)Nc2cccc(-n3cnnn3)c2)o1` , cAMP Accumulation Emax (% WT) observed: 98.5

compound `CCOc1ccc(S(=O)(=O)Nc2ccccc2C(=O)OCC(=O)Nc2cc(C)on2)cc1` , cAMP Accumulation Emax (% WT) observed: 76.6

compound `O=C(Cn1c(COc2ccccc2)nc2ccccc21)Nc1ccc(Cc2nnn[nH]2)cc1` , cAMP Accumulation Emax (% WT) observed: 92.93

compound `O=C(CSc1nnc[nH]1)Nc1sc2c(c1C(=O)NCc1ccccc1)CCCC2` , cAMP Accumulation Emax (% WT) observed: 91.0

compound `COc1ccccc1NS(=O)(=O)c1cc(NC(=O)c2ccc(=O)n(C)n2)ccc1N1CCCC1` , cAMP Accumulation Emax (% WT) observed: 96.9

###

Exercise: for every item that follows, state its recorded cAMP Accumulation Emax (% WT).
target: GLP-1R (Homo sapiens, UniProt P43220); settings: Table 4, analogues of new PAMs
Output spec: scalar in % WT, unitless text.

molecule `CCCCN(CC(=O)N(Cc1cccn1Cc1ccccc1)C1CC1)C(=O)C1CCCC1` , cAMP Accumulation Emax (% WT) observed: 78.2

molecule `Cc1ccc(NS(=O)(=O)c2ccc(NC(=O)c3n[nH]c4c3COc3ccccc3-4)cc2)cc1` , cAMP Accumulation Emax (% WT) observed: 114.9

molecule `COc1ccc(S(=O)(=O)Nc2cccc(C(=O)Nc3cc(C)on3)c2)cc1` , cAMP Accumulation Emax (% WT) observed: 126.1

molecule CCC(C)N(CC(=O)N(Cc1cccn1Cc1ccccc1)C1CCCCC1)C(=O)C1CCC1 (stereo not shown) , cAMP Accumulation Emax (% WT) observed: 92.2

###

Exercise: for every item that follows, state its recorded Binding Span ± SEM.
target: GLP-1R (Homo sapiens, UniProt P43220); details: Table 3, PAMs; competition with 125I-GLP-1 (40 pM), whole cells
# print the numeric value only

molecule `COc1ccc(NC(=O)c2n[nH]c3ccc([N+](=O)[O-])cc23)cc1NS(=O)(=O)c1ccc(F)cc1` , Binding Span ± SEM observed: −82.09

molecule `COc1ccccc1NS(=O)(=O)c1cc(NC(=O)c2ccc(=O)n(C)n2)ccc1N1CCCC1` , Binding Span ± SEM observed: −135.7

molecule `CN(CC(=O)N1CCC(C(=O)O)CC1)C(=O)c1cccn1CCc1ccccc1` , Binding Span ± SEM observed: −46.37

molecule `O=C(Cn1c(COc2ccccc2)nc2ccccc21)Nc1ccc(Cc2nnn[nH]2)cc1` , Binding Span ± SEM observed: 76.17

molecule `O=C(CSc1nnc[nH]1)Nc1sc2c(c1C(=O)NCc1ccccc1)CCCC2` , Binding Span ± SEM observed: −102.5
